Data provenance is ChEMBL document CHEMBL3639183.

- TARGET_SYSTEM: UniProt P28223
- Sequence (P28223 whole entry): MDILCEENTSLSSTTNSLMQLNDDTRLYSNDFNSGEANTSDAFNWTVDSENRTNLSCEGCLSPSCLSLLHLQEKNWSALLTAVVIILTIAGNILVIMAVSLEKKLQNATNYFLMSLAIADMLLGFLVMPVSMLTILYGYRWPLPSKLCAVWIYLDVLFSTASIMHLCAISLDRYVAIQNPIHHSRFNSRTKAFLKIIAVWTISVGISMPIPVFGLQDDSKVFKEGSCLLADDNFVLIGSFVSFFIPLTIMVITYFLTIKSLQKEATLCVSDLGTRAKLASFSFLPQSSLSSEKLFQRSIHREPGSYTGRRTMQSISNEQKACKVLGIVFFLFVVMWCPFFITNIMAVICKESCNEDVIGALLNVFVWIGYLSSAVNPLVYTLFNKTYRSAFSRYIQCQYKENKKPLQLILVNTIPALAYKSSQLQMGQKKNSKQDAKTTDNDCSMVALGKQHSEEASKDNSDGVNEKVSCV
- ASSAY_OVERVIEW: Radioligand Binding Assay: The ability of the compounds to bind to the 5-HT2A, D3 and D2 receptors was determined using radioligand binding to cloned receptors selectively expressed in HEK-293 EBNA cells.
MEASUREMENT_TYPE: pKi
// pKi is dimensionless: -log10 of concentration (M)

Exercise: Which pKi value belongs to CC(C)(O)C(=O)N[C@H]1CC[C@H](CCN2CCN(c3nccc4c3CCO4)CC2)CC1 ?
Solution: 8.11

---

- TARGET_SYSTEM: D(3) dopamine receptor (Homo sapiens)
- Sequence (P35462 whole entry): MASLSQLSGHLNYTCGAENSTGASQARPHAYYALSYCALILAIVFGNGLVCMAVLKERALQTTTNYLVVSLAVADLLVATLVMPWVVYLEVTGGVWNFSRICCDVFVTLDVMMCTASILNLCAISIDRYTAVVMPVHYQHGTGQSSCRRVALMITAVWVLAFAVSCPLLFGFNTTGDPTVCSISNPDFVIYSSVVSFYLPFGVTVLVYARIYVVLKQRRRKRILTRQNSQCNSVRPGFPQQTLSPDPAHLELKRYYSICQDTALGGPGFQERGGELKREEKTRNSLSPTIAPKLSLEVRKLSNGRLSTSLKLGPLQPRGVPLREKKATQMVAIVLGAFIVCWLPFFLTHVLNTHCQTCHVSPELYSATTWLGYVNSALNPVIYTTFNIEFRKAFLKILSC
- ASSAY_OVERVIEW: Radioligand Binding Assay: The ability of the compounds to bind to the 5-HT2A, D3 and D2 receptors was determined using radioligand binding to cloned receptors selectively expressed in HEK-293 EBNA cells.
MEASUREMENT_TYPE: Ki (nM)
Field: numeric (nM). Do not append units.

Exercise: Which Ki is reported for this compound? CC(C)(O)C(=O)N[C@H]1CC[C@H](CCN2CCN(c3nccc4c3CCO4)CC2)CC1
Solution: 195
